Source: PubChem BioAssay (Tox21)

Assay: qHTS assay to identify small molecule agonists of the peroxisome proliferator-activated receptor delta (PPARd) signaling pathway - cell viability counter screen (AID 743211); note: nearly all actives have a fitted effect of over 55% in size
Details: PPARd-bla HEK293H viability, CellTiter-Glo luminescence, 17 h; series mostly up to 62.6 µM
Results filed as inconclusive are left out. Calls of active or inactive are those of the source. Calls come from the whole dose curve; as a rule, active = well fitted cell-killing curve with a large enough effect in the repeat runs; inconclusive = weak or mixed curves; inactive = no such curve, though single readings can be large or run the other way.
Answer with one of the outcomes true (active), false (inactive)

CC[N+]1(CC)CCC(OC(=O)C(O)(c2ccccc2)c2ccccc2)C1 (stereo unspecified) :: false
CCCCc1ccccc1 :: false
O=S(=O)(NS(=O)(=O)C(F)(F)F)C(F)(F)F :: false
CCC(OC(C)=O)C(CC(C)NC)(c1ccccc1)c1ccccc1 (stereo unspecified) :: true
Cc1nn(-c2cc(NS(C)(=O)=O)c(Cl)cc2Cl)c(=O)n1C(F)F :: false

Call for entry `[O]=[Cr][O][Cr]=[O]` :
false
